Values were extracted from patent US20230348426A1.

Entries and their pEC50 values follow.
- targetOrSystem: human FPR1 (Homo sapiens (Human))
- Sequence (P21462 whole entry): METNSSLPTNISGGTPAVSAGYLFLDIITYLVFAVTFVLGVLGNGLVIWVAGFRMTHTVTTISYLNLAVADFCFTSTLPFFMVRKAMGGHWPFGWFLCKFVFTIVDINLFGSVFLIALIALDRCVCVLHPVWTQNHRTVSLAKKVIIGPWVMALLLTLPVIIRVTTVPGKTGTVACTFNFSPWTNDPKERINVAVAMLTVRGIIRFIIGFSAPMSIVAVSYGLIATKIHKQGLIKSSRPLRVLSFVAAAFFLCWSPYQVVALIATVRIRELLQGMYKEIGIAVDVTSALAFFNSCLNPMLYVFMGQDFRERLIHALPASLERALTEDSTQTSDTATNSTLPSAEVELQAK
- methodDescription: FPR1 cyclic adenosine monophosphate (cAMP) assay
- conditionParameters: CHO cells overexpressing human FPR1; forskolin 10 µM; inhibition of cAMP production; read-out: hFPR1 cAMP EC50
Here pEC50 is given on a logarithmic scale as minus log10 of the concentration in mol/L.

{"molecule": "COc1cc(F)c([C@@H]2CN(c3ccccc3P(C)(C)=O)C(=O)[C@H]2NC(=O)c2ccc(OC(F)F)cc2)c(F)c1", "pEC50": 6.82}
{"molecule": "COCCn1cccc(N2C[C@@H](c3c(F)cc(OC)cc3F)[C@H](NC(=O)c3ccc(OC(F)(F)F)cc3)C2=O)c1=O [Example 302]", "pEC50": 7.66}
{"molecule": "O=C(N[C@@H]1C(=O)N(c2cccn(CC(F)F)c2=O)C[C@H]1c1ccc(Cl)cc1)c1ccc(OC(F)F)cc1", "pEC50": 7.52}
{"molecule": "COc1cc(F)c([C@@H]2CN(c3cccn(C(CO)C(F)(F)F)c3=O)C(=O)[C@H]2NC(=O)c2ccc(OC(F)F)cc2)c(F)c1 (some centres unmarked) [Example 582]", "pEC50": 6.26}

q: Entry CCn1cc2c(c(N3C[C@@H](c4c(F)cc(OC)cc4F)[C@H](NC(=O)c4ccc(OC(F)F)cc4)C3=O)c1=O)CCCC2 : reported pEC50 = ?
a: 5.77
